System: Saccharomyces cerevisiae
experiment.description: protein stability index of tFT-peptide fusion (C-terminal peptide) (PSI (0-1 scale)); higher = more stable (slower turnover);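 also: PSI is a weighted mean of sequencing reads over stability bins, variants kept only with over 10 reads, mCherry proximal and sfGFP distal, peptide attached via GGGS linker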
details: genetic background: wild type; temperature: 30 C
Classification field: enter label 1 for protein stability index values not below 0.6, label 0 for values below it.

Does protein stability index meet or surpass 0.6 for LVGVLLAVWSVV ? label 0

Does protein stability index meet or surpass 0.6 for CVFFPFLGVCYV ? label 0

Does protein stability index meet or surpass 0.6 for EGLVRVCSRHYR ? label 1

Does protein stability index meet or surpass 0.6 for VRSVSCPCCAHF ? label 1

Does protein stability index meet or surpass 0.6 for SNTVSRAPFLLA ? label 1

Does protein stability index meet or surpass 0.6 for GDGGCKVEWVRG ? label 1

Does protein stability index meet or surpass 0.6 for PLPAPPLPPRSP ? label 1

Does protein stability index meet or surpass 0.6 for KAIILGNIKINF ? label 0

Does protein stability index meet or surpass 0.6 for SALLLPRARPPD ? label 1

Does protein stability index meet or surpass 0.6 for TNRRSRLQVSSN ? label 1

Does protein stability index meet or surpass 0.6 for DCNQLRGRAFRL ? label 1

Does protein stability index meet or surpass 0.6 for CIFFSPFSFLLP ? label 1

Does protein stability index meet or surpass 0.6 for NKIDNNKKIHRV ? label 1

Does protein stability index meet or surpass 0.6 for GFRALRCPTAFS ? label 1

Does protein stability index meet or surpass 0.6 for IAWGNEISHSLF ? label 1

Does protein stability index meet or surpass 0.6 for PRLGFFPFPSGP ? label 1

Does protein stability index meet or surpass 0.6 for IEVGVAILLLGE ? label 0

Does protein stability index meet or surpass 0.6 for GANSILRDIEFL ? label 1

###

Would you mind telling me the reported protein stability index of each entry?
Test system: Saccharomyces cerevisiae
experiment.description: protein stability index of tFT-peptide fusion (C-terminal peptide) (PSI (0-1 scale)); higher = more stable (slower turnover)
details: genetic background: wild type; temperature: 30 C
Form field (numeric): enter value without unit.

Entry SPAIRAILAPAG : reported protein stability index = ? 0.43

Entry ASAYCCMITRLN : reported protein stability index = ? 0.0882

Entry SIPVWTIELFAT : reported protein stability index = ? 0.368

Entry CFVFYALFGFAV : reported protein stability index = ? 0.285

Entry VYIVLLLLFLRP : reported protein stability index = ? 0.319

Entry LGLCFFFYSLHS : reported protein stability index = ? 0.401

Entry SCCIYVALCRWL : reported protein stability index = ? 0.353

Entry LIFLSISFISSL : reported protein stability index = ? 0.15

Entry FFSCFFFSVLYR : reported protein stability index = ? 0.302

Entry GRCGGPRSLGVG : reported protein stability index = ? 0.538

Entry DFIVVIRFIQII : reported protein stability index = ? 0.154

Entry SPPPLFLIVLHL : reported protein stability index = ? 0.371

Entry FFIMFFDFWGYF : reported protein stability index = ? 0.373

Entry LGATYSVQLYVS : reported protein stability index = ? 0.0832

Entry VPWSKIAARLII : reported protein stability index = ? 0.315

Entry CWLFCACFVRLV : reported protein stability index = ? 0.0636

Entry CVLLRPGFLVLV : reported protein stability index = ? 0.166

Entry ILRKTAFRLRVL : reported protein stability index = ? 0.264

Entry PRFWFYLSYSVH : reported protein stability index = ? 0.344

###

System: Saccharomyces cerevisiae
experiment.description: protein stability index of tFT-peptide fusion (C-terminal peptide) (PSI (0-1 scale)); higher = more stable (slower turnover)
details: genetic background: wild type; temperature: 30 C
Would you mind telling me the reported protein stability index of each entry?
Form field (numeric): enter value without unit.

Entry FFSSSDRQLSNQ : reported protein stability index = ? 0.716

Entry LLLLGVSLFLVR : reported protein stability index = ? 0.366

Entry FCLGSVIWERDS : reported protein stability index = ? 0.625

Entry KKKKEKNKHNIR : reported protein stability index = ? 0.72

Entry WGFSVRFVLSVF : reported protein stability index = ? 0.12

Entry GHYQGVCHRRIC : reported protein stability index = ? 0.34

Entry PFIDCEHIRGFN : reported protein stability index = ? 0.735

Entry LAGVEMWVGLEV : reported protein stability index = ? 0.61

Entry RGARGGRLVCRE : reported protein stability index = ? 0.689

Entry LWGWAGLRCGGF : reported protein stability index = ? 0.685

Entry RFINRVVAGDRR : reported protein stability index = ? 0.681

Entry FPLIFALFPTFF : reported protein stability index = ? 0.603

Entry LAPSRNRSVWLV : reported protein stability index = ? 0.247

Entry YTPPISRLLIFT : reported protein stability index = ? 0.497

Entry AFVEGMAYLLII : reported protein stability index = ? 0.524

Entry AKYPAQASTEPL : reported protein stability index = ? 0.702

Entry PPPPPLPLPLPS : reported protein stability index = ? 0.728

Entry SETGSGGLFSLP : reported protein stability index = ? 0.693

Entry TPLNPLYCPPTP : reported protein stability index = ? 0.638

Entry SGGGGGWQEEAG : reported protein stability index = ? 0.662

Entry SPPVPPLPAPAT : reported protein stability index = ? 0.539

Entry RLLENVSYDWRN : reported protein stability index = ? 0.714

Entry SPISFIHPHISG : reported protein stability index = ? 0.644

Entry GPPRDLARKAGL : reported protein stability index = ? 0.708

Entry SGPTFRWAGVLC : reported protein stability index = ? 0.593

Entry ESNFTLIRKIRT : reported protein stability index = ? 0.64

Entry FASFLSIPTRFS : reported protein stability index = ? 0.712

Entry FTFFFNCYSRSS : reported protein stability index = ? 0.655

Entry CGPRPDSIDVGF : reported protein stability index = ? 0.608

Entry KKGKSKKKGKKT : reported protein stability index = ? 0.691

Entry RIKVTRRIIIYA : reported protein stability index = ? 0.299

Entry GKRTGRKKRRKR : reported protein stability index = ? 0.638

Entry LLSVPSLFCQFF : reported protein stability index = ? 0.683

Entry GGGVVGPGGVLK : reported protein stability index = ? 0.705

Entry QCRSLVGGCCVW : reported protein stability index = ? 0.693

Entry FPSFHLCNIPST : reported protein stability index = ? 0.757

Entry PPRPLTPAPSDT : reported protein stability index = ? 0.682

Entry CFSMGKRGLRGR : reported protein stability index = ? 0.686

Entry IPFPSFPASLYR : reported protein stability index = ? 0.694

Entry RVGERGEGGGVV : reported protein stability index = ? 0.638

Entry FALRDLHLSCFA : reported protein stability index = ? 0.577

###

Would you mind telling me the reported protein stability index of each entry?
System: Saccharomyces cerevisiae
experiment.description: protein stability index of tFT-peptide fusion (C-terminal peptide) (PSI (0-1 scale)); higher = more stable (slower turnover)
details: genetic background: das1 deletion; temperature: 37 C
Form field (numeric): enter value without unit.

Entry GVFVVVGEASVH : reported protein stability index = ? 0.574

Entry WNSQGVFILAKC : reported protein stability index = ? 0.569

Entry LCFLVALASMLF : reported protein stability index = ? 0.549

Entry WGFSVRFVLSVF : reported protein stability index = ? 0.241

Entry CSSSNRRRYFVL : reported protein stability index = ? 0.724

Entry IWWFKELRVCRV : reported protein stability index = ? 0.559

Entry RSPIRYPPVVLS : reported protein stability index = ? 0.749

Entry FFFLILFPLSYS : reported protein stability index = ? 0.547

Entry AYFPSQRVHHLM : reported protein stability index = ? 0.765

Entry VFVFTFSLSFYC : reported protein stability index = ? 0.356

Entry LSFFDYVLLQIA : reported protein stability index = ? 0.635

Entry DISWVFVLLIFF : reported protein stability index = ? 0.485

Entry FCLFFFPSLFFF : reported protein stability index = ? 0.604

Entry FLLLDFMLVSLV : reported protein stability index = ? 0.543

Entry VVGVLLLYLNPF : reported protein stability index = ? 0.572

Entry GWLSVLVYFLSG : reported protein stability index = ? 0.562

Entry TFLFPLPFLFFI : reported protein stability index = ? 0.119

Entry WWVAGLGSSGGG : reported protein stability index = ? 0.788

Entry TFRPWPLHILAL : reported protein stability index = ? 0.325

Entry FSRFPFVKLSLV : reported protein stability index = ? 0.702

Entry QGILVGCCYVLC : reported protein stability index = ? 0.503

Entry IYFFFFALHFPN : reported protein stability index = ? 0.535

Entry VGAYSVVYVVFS : reported protein stability index = ? 0.547

Entry LLVKFTFLIIFT : reported protein stability index = ? 0.31

Entry FPFHSRPCLPVL : reported protein stability index = ? 0.622

Entry CFSVFSVLCFFV : reported protein stability index = ? 0.627

Entry ISSYKFLRIVLV : reported protein stability index = ? 0.509

Entry AWLWCVCWSIMR : reported protein stability index = ? 0.502

Entry AFYQSGGLVVVV : reported protein stability index = ? 0.628

Entry LFHVWSLRFFWL : reported protein stability index = ? 0.684

Entry LDFPPLRLILRL : reported protein stability index = ? 0.646

Entry MIQPRLANIIIS : reported protein stability index = ? 0.833

Entry VFFMFVFFPFPG : reported protein stability index = ? 0.592

Entry WAIVVLVCFLRL : reported protein stability index = ? 0.388

Entry LVSYHKMAISSF : reported protein stability index = ? 0.626

Entry GLVVMFVIAGGG : reported protein stability index = ? 0.506

Entry RLVIFITRYLIS : reported protein stability index = ? 0.562

Entry AQLVYVITAVRT : reported protein stability index = ? 0.569

Entry CYTGYMYKLLVG : reported protein stability index = ? 0.59

Entry RIKVTRRIIIYA : reported protein stability index = ? 0.446

Entry LLFFGFVGSCVF : reported protein stability index = ? 0.671
